The measurements presented in this section are drawn from ChEMBL document CHEMBL1157684.

test system: DU-145; experiment: Cytotoxicity against human DU145 cells after 4 days by ELISA reader assay; format: functional, cell-based; settings: DU-145, 96 h
Structures can show the parent of a compound that is named as a salt.
assay-readout: log10 of IC50 (log10 of the value in µM)
Use the decimal logarithm of IC50 (µM).

Solved entries:
// returns reported log10 of IC50 for input Clc1ccc(-c2cc(-c3ccoc3)cc(-c3ccccn3)n2)s1
1.31

// returns reported log10 of IC50 for input CC[C@@]1(O)C(=O)OCc2c1cc1n(c2=O)Cc2cc3ccccc3nc2-1 [CAMPTOTHECIN]
-0.18

// returns reported log10 of IC50 for input Cc1ccsc1-c1cc(-c2ccc(Cl)o2)cc(-c2ccc(Cl)cc2)n1
1.34

// returns reported log10 of IC50 for input Clc1ccc(-c2cc(-c3ccoc3)cc(-c3cccnc3)n2)s1
1.27

// returns reported log10 of IC50 for input Cc1ccsc1-c1cc(-c2ccoc2)cc(-c2ccc(Cl)cc2)n1
1.30

More entries:
// returns reported log10 of IC50 for input Clc1ccc(-c2cc(-c3ccoc3)cc(-c3ccc(Cl)s3)n2)cc1
1.47

// returns reported log10 of IC50 for input Cc1ccsc1-c1cc(-c2ccc(Cl)o2)cc(-c2cccnc2)n1
1.49

// returns reported log10 of IC50 for input Clc1cccc(-c2cc(-c3ccoc3)cc(-c3ccc(Cl)s3)n2)c1
1.36

// returns reported log10 of IC50 for input Cc1cccc(-c2cc(-c3ccoc3)cc(-c3ccc(Cl)s3)n2)c1
1.31

// returns reported log10 of IC50 for input Clc1ccc(-c2cc(-c3ccoc3)cc(-c3ccccc3Cl)n2)s1
1.21

// returns reported log10 of IC50 for input Clc1cccc(-c2cc(-c3ccc(Cl)o3)cc(-c3ccc(Cl)s3)n2)c1
1.33

// returns reported log10 of IC50 for input Clc1ccc(-c2cc(-c3ccco3)nc(-c3ccc(Cl)s3)c2)o1
1.44

// returns reported log10 of IC50 for input Cc1ccc(-c2cc(-c3ccoc3)cc(-c3ccc(Cl)s3)n2)cc1
1.40

// returns reported log10 of IC50 for input Clc1ccc(-c2cc(-c3ccoc3)cc(-c3ccco3)n2)s1
1.24

// returns reported log10 of IC50 for input Cc1ccsc1-c1cc(-c2ccc(Cl)o2)cc(-c2cccc(Cl)c2)n1
1.31

// returns reported log10 of IC50 for input Cc1ccsc1-c1cc(-c2ccc(Cl)o2)cc(-c2ccco2)n1
1.44

// returns reported log10 of IC50 for input Cc1ccsc1-c1cc(-c2ccoc2)cc(-c2ccco2)n1
1.48

// returns reported log10 of IC50 for input Clc1ccc(-c2cc(-c3ccco3)cc(-c3ccc(Cl)s3)n2)cc1
1.17

// returns reported log10 of IC50 for input COc1cccc2c1C(=O)c1c(O)c3c(c(O)c1C2=O)C[C@@](O)(C(=O)CO)C[C@@H]3O[C@H]1C[C@H](N)[C@H](O)[C@H](C)O1 [DOXORUBICIN HYDROCHLORIDE]
0.18

====

target: UniProt P11388; experiment: Inhibition of human DNA topoisomerase 2alpha-mediated relaxation of supercoiled pBR322 DNA at 20 uM after 30 mins by agarose gel electrophoresis
Sequence (P11388 whole entry): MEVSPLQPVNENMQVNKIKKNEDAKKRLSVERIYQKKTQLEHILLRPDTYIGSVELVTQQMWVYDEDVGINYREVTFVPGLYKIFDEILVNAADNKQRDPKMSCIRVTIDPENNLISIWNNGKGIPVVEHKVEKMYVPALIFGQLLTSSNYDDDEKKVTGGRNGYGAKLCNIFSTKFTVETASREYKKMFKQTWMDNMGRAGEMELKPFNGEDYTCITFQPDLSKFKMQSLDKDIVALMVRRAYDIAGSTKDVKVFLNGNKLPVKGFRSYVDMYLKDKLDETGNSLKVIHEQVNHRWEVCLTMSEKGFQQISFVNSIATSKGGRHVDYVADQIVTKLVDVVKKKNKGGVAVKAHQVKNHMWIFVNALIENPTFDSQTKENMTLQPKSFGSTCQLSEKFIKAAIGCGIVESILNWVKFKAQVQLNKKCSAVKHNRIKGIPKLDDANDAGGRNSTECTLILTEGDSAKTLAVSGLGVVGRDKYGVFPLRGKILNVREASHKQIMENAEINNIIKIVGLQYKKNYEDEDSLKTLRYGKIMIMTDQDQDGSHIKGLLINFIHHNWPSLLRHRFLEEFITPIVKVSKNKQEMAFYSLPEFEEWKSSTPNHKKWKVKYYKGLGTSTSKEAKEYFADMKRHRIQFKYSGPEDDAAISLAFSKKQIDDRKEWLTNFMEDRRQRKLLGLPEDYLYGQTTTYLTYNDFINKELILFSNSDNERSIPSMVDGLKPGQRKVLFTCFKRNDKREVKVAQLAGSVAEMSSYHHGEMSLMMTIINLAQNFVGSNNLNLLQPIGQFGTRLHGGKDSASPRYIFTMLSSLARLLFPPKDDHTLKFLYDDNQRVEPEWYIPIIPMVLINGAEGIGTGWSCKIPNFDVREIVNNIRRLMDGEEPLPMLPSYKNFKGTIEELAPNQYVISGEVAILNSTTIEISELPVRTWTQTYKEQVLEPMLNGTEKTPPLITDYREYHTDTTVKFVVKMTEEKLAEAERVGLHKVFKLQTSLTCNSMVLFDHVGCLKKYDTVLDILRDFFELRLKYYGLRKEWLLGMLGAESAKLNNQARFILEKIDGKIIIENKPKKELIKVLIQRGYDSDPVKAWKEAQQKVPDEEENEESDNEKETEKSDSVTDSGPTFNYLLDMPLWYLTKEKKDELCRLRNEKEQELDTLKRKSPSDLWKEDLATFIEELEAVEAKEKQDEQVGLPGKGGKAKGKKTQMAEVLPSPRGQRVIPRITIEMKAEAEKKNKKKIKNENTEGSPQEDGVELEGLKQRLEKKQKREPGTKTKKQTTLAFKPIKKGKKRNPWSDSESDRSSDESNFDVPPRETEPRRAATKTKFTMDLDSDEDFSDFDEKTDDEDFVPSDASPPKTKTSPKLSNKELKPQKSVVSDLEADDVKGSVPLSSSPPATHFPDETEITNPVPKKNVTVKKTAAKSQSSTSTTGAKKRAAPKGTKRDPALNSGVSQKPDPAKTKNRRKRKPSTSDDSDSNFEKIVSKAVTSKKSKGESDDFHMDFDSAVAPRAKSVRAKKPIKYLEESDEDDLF
Assign satisfied to entries whose inhibition meets or exceeds 40%; assign not satisfied to the rest.

Determine whether measured inhibition meets or exceeds 40% for Clc1ccc(-c2cc(-c3ccoc3)cc(-c3ccco3)n2)s1
satisfied

Determine whether measured inhibition meets or exceeds 40% for Clc1ccc(-c2cc(-c3ccoc3)cc(-c3ccccc3Cl)n2)s1
not satisfied

Determine whether measured inhibition meets or exceeds 40% for Cc1ccc(-c2cc(-c3ccoc3)cc(-c3ccc(Cl)s3)n2)o1
satisfied

Determine whether measured inhibition meets or exceeds 40% for Cc1ccsc1-c1cc(-c2ccc(Cl)o2)cc(-c2ccco2)n1
not satisfied

Determine whether measured inhibition meets or exceeds 40% for Clc1ccc(-c2cc(-c3ccc(Cl)o3)cc(-c3ccc(Cl)s3)n2)cc1
satisfied

Determine whether measured inhibition meets or exceeds 40% for Clc1cccc(-c2cc(-c3ccoc3)cc(-c3ccc(Cl)s3)n2)c1
satisfied

Determine whether measured inhibition meets or exceeds 40% for Cc1ccccc1-c1cc(-c2ccoc2)cc(-c2ccc(Cl)s2)n1
satisfied

Determine whether measured inhibition meets or exceeds 40% for Cc1cccc(-c2cc(-c3ccoc3)cc(-c3ccc(Cl)s3)n2)c1
not satisfied

Here's the next entry for you.
Determine whether measured inhibition meets or exceeds 40% for Clc1ccc(-c2cc(-c3ccco3)cc(-c3ccc(Cl)s3)n2)cc1
satisfied
